The compounds below each have a reported IC50 tested on Coagulation factor X (Homo sapiens, UniProt P00742); the values come from various publications.
Lab note - cut at 80 nM for IC50: satisfied if strictly below, not satisfied if not.

Worked cases, answers included:
CC(=N)N1CC[C@H](Oc2ccc(CCc3cc4cc(C(=N)N)ccc4o3)cc2)C1 :: not satisfied
Cc1cc(C(=O)Nc2ccc(N3CCCCC3=O)cc2)n(-c2ccc3cc(Cl)ccc3c2)n1 :: satisfied
CS(=O)(=O)N(Cc1ccc2ccc(C(=N)N)cc2c1)C1CCN(S(=O)(=O)c2cccc(-c3ccccc3)c2)CC1 :: not satisfied
CN1CCN=C1c1ccc(C(=O)N2CCN(S(=O)(=O)c3cc4cc(Cl)ccc4[nH]3)CC2C(=O)O)cc1 (stereo not drawn) :: satisfied
Nc1noc2c(N3CC[C@@H](NC(=O)c4ccc(-n5cnnc5C(F)F)cc4Cl)C3)ncc(Cl)c12 :: not satisfied

-- ask Confirm or reject: IC50 of N=C(N)c1ccc(CNC(=O)C(CCC2CCNCC2)NC(=O)[C@@H](CC2CCCCC2)NCC(=O)O)cc1 (mixture of isomers) lies strictly below 80 nM
-- reply not satisfied

-- ask Same question for N=C(N)NCCC[C@@H](NS(=O)(=O)Cc1ccccc1)C(=O)NC(=O)CN[C@H](CCCNC(=N)N)C(=O)c1nccs1 please.
-- reply satisfied

---

The compounds below each have a reported log10(IC50) tested on Coagulation factor X (Homo sapiens, UniProt P00742); the values come from various publications.
Log scale reminder: IC50 in nM, then log10 taken.

CC(C)N1CCC(C(=O)Nc2c(O[C@@H]3O[C@H](C(=O)O)[C@@H](O)[C@H](O)[C@H]3O)cc(Br)cc2C(=O)Nc2ccc(Cl)cn2)CC1 :: 0.69
CN(Cc1ccc(C(=O)Nc2ccc(Cl)cc2C(=O)Nc2ccc(Cl)cn2)cc1)C(=N)N :: 0.00
C/C(=C(\F)C(=O)Nc1ccc(-c2ccnc(C(N)=O)c2)cc1)c1ccc2ccnc(N)c2c1 :: 2.26
COc1ccc(NC(=O)C(=O)Nc2ccc(F)cc2)c(C(=O)Nc2ccc(N3CCOCC3=O)cc2)c1 :: 2.83
CC(=N)N1CCC(Oc2ccc(OCc3nc4cc(C(=N)N)ccc4n3CC(=O)NCC3CCCCC3)cc2)CC1 :: 2.48
O=C(NCc1ccc2[nH]c(-c3ccc(Cl)s3)nc2c1)c1ccc(N2CCOCC2=O)cc1 :: 2.64
CN(C)C(=N)c1ccc(C(=O)Nc2ccc(Cl)cc2C(=O)Nc2ccc(Cl)cn2)cc1F :: 0.04

-- ask Report log10(IC50) for CC1(C)COc2c(COc3ccccc3CC(=O)O)cc(-c3ccc4c(c3)[C@H](N)CCO4)cc21 please.
-- reply 3.63

---

The molecules below each have a reported log10 of IC50 tested on Coagulation factor X (Homo sapiens); the values come from various publications.
Log scale reminder: IC50 in µM, then log10 taken.

C/C(=C(\F)C(=O)Nc1ccc(-c2ccccc2S(N)(=O)=O)cc1)c1cc(N)ccc1[N+](=O)[O-] :: -0.60

-- ask Report log10 of IC50 for CC[C@@H](C)[C@@H](NC1CCCCC1)C(=O)N1C[C@@](C)(O)C[C@H]1C(=O)NCc1ccc2c(N)nccc2c1 please.
-- reply -1.31

-- ask Same question for CC(=N)N1CCC(Oc2ccc(N(Cc3cc(-c4cccc(C(=N)N)c4)no3)S(C)(=O)=O)cc2)CC1 please.
-- reply -1.85

-- ask Same question for N=C(N)c1ccc(CNC(=O)C(Cc2ccc(CN)cc2)NC(=O)[C@@H](CC2CCCCC2)NCC(=O)O)cc1 (mixture of isomers) please.
-- reply 1.62

-- ask Same question for CC(CCc1ccccc1)Nc1c(F)c(Oc2cccc(C(=N)N)c2)nc(Oc2ccc(C(=O)NC(C)C(C)(C)C)cc2C(=O)O)c1F (stereo not drawn) please.
-- reply 0.63

-- ask Same question for Cc1nsc(C)c1S(=O)(=O)N1CCN(CC(=O)NC(CCCNC(=N)N)C(=O)c2nccs2)C(=O)C1 (stereo not drawn) please.
-- reply -1.16

-- ask Same question for CN(CCS(=O)(=O)c1ccc2cc(Cl)ccc2c1)C(=O)C1CCN(c2ccncc2)CC1 please.
-- reply -0.08
